Target: A*03:01, P04439
Conditions: modification not given
readout: IC50 (nM)
# number only, unit nM dropped from output

input: Entry ALKLSWFKK […, serotype 1] : reported IC50 = ?
output: 42
